- Organism: Mus musculus
- Assay: Compound was evaluated for the inhibition of Con A (concanavalin A) stimulated murine thymocyte mitogenesis.
- Type: functional
Recorded metric: IC50 (µg/mL)
One number for each entry, in µg/mL.

Dear colleague, could you please provide IC50 for the compounds listed below?
1. C[C@@H]1NC(=O)[C@H](Cc2ccccc2)NC(=O)[C@@H]2CCCN2C(=O)[C@H](CCCCCC(=O)CCl)NC1=O
2. C[C@@H]1NC(=O)[C@H](C)NC(=O)[C@@H]2CCCN2C(=O)[C@H](CCCCCC(=O)CCl)NC1=O
3. CC1(C)NC(=O)[C@H](CCCCCC(=O)[C@H]2CO2)NC(=O)[C@H]2CCCN2C(=O)[C@H](Cc2ccccc2)NC1=O [CHLAMYDOCIN]

1. 0.1
2. 0.04
3. 0.003

Could you please provide reported IC50 for CC1(C)NC(=O)[C@H](CCCCCC(=O)CCl)NC(=O)[C@H]2CCCN2C(=O)[C@H](Cc2ccccc2)NC1=O ? Thanks!
0.01
